FYI, the data here is from ChEMBL document CHEMBL1201862.

# Test system: LXFL 529
# Experimental details: NCI tumour cell line growth inhibition, 48 h
Active and inactive are the calls of the source. Rule as the data show it: active = GI50 up to about 1.1 µM and inactive = higher.
Measured attribute: GI50

Some compounds with known GI50 results, for comparison:
Query: State measured GI50 of the compound Cc1cc(N(CCC#N)CCC#N)ccc1/N=N/c1ccc(Br)cc1 with LXFL 529.
Result: > 48.8 µM (inactive)

Query: State measured GI50 of the compound COc1c(C)cc(O)cc1C=O with LXFL 529.
Result: > 100 µM (inactive)

New cases:
Query: State measured GI50 of the compound CN(C)CCCNc1ccc2ncn3c4ccccc4c(=O)c1c23 with LXFL 529.
Result: 8.55 µM (inactive)

Query: State measured GI50 of the compound COc1cc([C@H]2c3cc4c(cc3[C@H](NCc3ccc(F)cc3)C3COC(=O)[C@H]32)OCO4)cc(OC)c1O (stereo partly specified) with LXFL 529.
Result: 16.3 µM (inactive)

Query: State measured GI50 of the compound CCC1C[N+]23CCc4c([nH]c5ccccc45)C2CC1CC3 (stereo unspecified) with LXFL 529.
Result: 33.8 µM (inactive)

Query: State measured GI50 of the compound Cn1cnnc1Sc1c([N+](=O)[O-])nc(-c2ccc([N+](=O)[O-])cc2)n1C with LXFL 529.
Result: 13.8 µM (inactive)

* * *

# maps each entry to its GI50
# System: M14
# Experimental details: NCI tumour cell line growth inhibition, 48 h
Activity calls are given as the source filed them. Rule as the data show it: active = GI50 up to about 1.1 µM and inactive = higher.

Some compounds with known GI50 results, for comparison:
Query: // Input: CC#CCOC(=O)c1ccccc1OC(C)=O . Output its GI50 only.
Result: > 100 µM (inactive)

Query: // Input: Cc1cc(C)c(S(=O)(=O)N2CCN(S(=O)(=O)c3c(C)cc(C)cc3C)OCCCCCO2)c(C)c1 . Output its GI50 only.
Result: > 100 µM (inactive)

Query: // Input: Cc1cn(C2OC(C)(CO)C(O)C2O)c(=O)[nH]c1=O (configuration not stated) . Output its GI50 only.
Result: > 100 µM (inactive)

Query: // Input: O=[N+]([O-])c1ccccc1S(=O)(=O)c1cc(Cl)cc2c1NCCC2 . Output its GI50 only.
Result: 63 µM (inactive)

Query: // Input: CCOC(=O)Cn1nc2ccc(Nc3c(C)[n+]([O-])c4cc(F)c(OCC)cc4[n+]3[O-])cc2n1 . Output its GI50 only.
Result: > 100 µM (inactive)

New cases:
Query: // Input: CN(O)C(=O)c1cccc(Cl)c1 . Output its GI50 only.
Result: > 100 µM (inactive)

Query: // Input: COc1ccccc1/C=C1\NC(=S)N(/C=C2\C(=O)Oc3ccccc3C2=O)C1=O . Output its GI50 only.
Result: 64.1 µM (inactive)

Query: // Input: CCOC(=O)C1C(C(C)C)C2(C#N)C(=N)OC1(C)C2(C#N)C#N (configuration not stated) . Output its GI50 only.
Result: > 100 µM (inactive)

Query: // Input: CN1CCC/C1=C1/C(=O)N(c2ccccc2)N=C1c1ccc[nH]1 . Output its GI50 only.
Result: > 100 µM (inactive)

Query: // Input: COc1ccc(NC(=O)CC2SC(Nc3ccc(Cl)cc3C)=NC2=O)c([N+](=O)[O-])c1 (configuration not stated) . Output its GI50 only.
Result: > 100 µM (inactive)

Query: // Input: COC(=O)C(=O)C(C(=O)C=C(C)C)C(=O)C(=O)Nc1cc(C(F)(F)F)ccc1Cl (configuration not stated) . Output its GI50 only.
Result: > 100 µM (inactive)

Query: // Input: O=c1c2ccccc2c(=O)c2c1cc(Cl)c1[nH]c3c([nH]c12)c(Cl)cc1c(=O)c2ccccc2c(=O)c13 . Output its GI50 only.
Result: > 100 µM (inactive)
